- PROTOCOL_NOTES: ATP-based viability of Huh7 replicon cells – cell-based, CellTiter-Glo luminescence, basal, 48 h, cytotoxicity control for HCV replication inhibitor project, primary screen (AID 1143);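 further: Huh7 hepatoma cells carrying a hepatitis C replication reporter with no stimulus; test concentration not given here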
- CONDITION_DESCRIPTION: higher = more signal, called active from +8 up or from −8 down
Decide by z-score: equal to or exceeding -2 means met, less means not met.

{"columns": ["COMPOUND", "GROUP"],
 "data": [
  ["CC(C)(C)N1CC=CC23O[C@@H]4C=CCCOC(=O)C4[C@H]2C(=O)N(CCCCCCO)[C@@H]3C1=O (some centres undefined)", "met"],
  ["COCCOC(=O)N1C(=O)[C@@]2(c3cc(C#CCC(C(=O)OC)C(=O)OC)ccc31)[C@H](C(=O)Nc1nc3ccccc3s1)[C@H]1C(=O)O[C@H](c3ccccc3)[C@H](c3ccccc3)N1[C@@H]2c1ccc(O)cc1", "met"],
  ["CCCCN1CC=CC23O[C@@H]4/C=C\\CCCOC(=O)C4[C@H]2C(=O)N(C(CO)C(C)C)[C@@H]3C1=O (some centres undefined)", "met"],
  ["COc1ccc([Si](C)(C)[C@@H]2[C@@H](CC(=O)N3CCC[C@H]3CO)O[C@]3(C(=O)N(Cc4cccc(N5CCCCC5=O)c4)c4ccccc43)[C@H]2C)cc1", "not met"],
  ["CCOc1cc(C(O)C2C=CC3C(=O)N(c4ccccc4)C(=O)C3N2Nc2ccccc2F)ccc1O (centres undefined)", "met"],
  ["NC(=O)NCC#Cc1ccc2c(c1)[C@]1(C(=O)N2)[C@H](c2ccc(OCCO)cc2)N2[C@H](c3ccccc3)[C@H](c3ccccc3)OC(=O)[C@H]2[C@@H]1C(=O)NC[C@H](O)c1ccccc1", "not met"],
  ["CO[C@H]1O[C@H](CO)[C@@H](OC(=O)Nc2ccccc2)[C@H](OC(=O)Nc2ccccc2)[C@H]1OC(=O)Nc1ccccc1", "not met"],
  ["CC(C)NC(=O)[C@@]1(c2ccc([N+](=O)[O-])cc2)CC(=O)N(CC23CC4CC(CC(C4)C2)C3)[C@@H]1c1ccc(CO)cc1", "not met"],
  ["O=C1C=C(c2ccccc2)C(=O)C2=C1CC([C@H]1Oc3ccccc3S(=O)(=O)N3CCC[C@@H]13)=CC2", "not met"],
  ["CC(=O)NCCCC[C@@H]1NC(=O)[C@H]2C[C@@H](C(=O)NCCCCCCNC(=O)CS)[C@@H](c3cccc(OCCO)c3)N2C1=O", "met"],
  ["CCOC(=O)C1=CCC(c2cc3ccccc3[nH]2)N(CCN2CC(C(=O)OCC)=CCC2c2cc3ccccc3[nH]2)C1 (centres undefined)", "met"],
  ["Cc1ccc(S[C@]2(C(=O)NCCCN(C)C)CC(=O)N(C3Cc4ccccc4C3)[C@@H]2c2ccc(CO)cc2I)cc1", "met"],
  ["CCCNC(=O)[C@@]1(c2ccc([N+](=O)[O-])cc2)CC(=O)N(C(C)C)[C@@H]1c1ccc(CO)cc1", "met"],
  ["CN1C(=O)C2C(C1=O)C1C=C(c3ccc(CO)cc3)C2C(C2CC2)N1C (centres undefined)", "met"]
]}

----------
- TARGET_OF_ASSAY: Neurogenic locus notch homolog protein 2 (Homo sapiens)
- PROTOCOL_NOTES: small molecules binding Notch2 protein – biochemical, small-molecule microarray, 635 nm fluorescence, stem cell growth factors, primary screen (AID 1073)
- CONDITION_DESCRIPTION: higher = more signal
PROPERTY_MEASURED: composite z-score

{"columns": ["COMPOUND", "PROPERTY_MEASURED", "MEAS_VALUE"],
 "data": [
  ["COc1cc(OC)c(C(O)C2C=CC3C(=O)N(c4ccccc4)C(=O)C3N2Nc2ccc(C(C)C)cc2)cc1Br (stereo not drawn)", "composite z-score", 1.44],
  ["COC(=O)[C@@]1(Cc2ccc(OC)cc2)[C@H]2c3cc(C(=O)N(C)C)[nH]c3C[C@H]2CN1C(=O)c1ccccc1", "composite z-score", 0.793],
  ["O=C1C2C=CC(C(O)c3cccs3)N(Nc3ccc([N+](=O)[O-])cc3)C2C(=O)N1c1ccccc1 (stereo not drawn)", "composite z-score", 1.19],
  ["COCCOC(=O)N1C(=O)[C@@]2(c3cc(C#CCNC(N)=O)ccc31)[C@H](C(=O)Nc1nc3ccccc3s1)[C@H]1C(=O)O[C@H](c3ccccc3)[C@H](c3ccccc3)N1[C@@H]2c1ccccc1OCCO", "composite z-score", 0.809],
  ["COc1ccccc1CN1C(=O)c2ccccc2[C@](Cc2ccccc2I)(C(=O)NCC(C)C)[C@@H]1c1ccc(CO)cc1", "composite z-score", -0.396],
  ["COC(=O)C1=CC(CCCO)=CC(c2cccs2)N(Cc2cc3c(cc2Br)OCO3)C=C1C(=O)OC (stereo not drawn)", "composite z-score", 1.27],
  ["OCCCC1=CC(c2ccc(CN3CCCC3)cc2)N(Cc2cccc(OC(F)(F)F)c2)CC1 (stereo not drawn)", "composite z-score", -0.546],
  ["CN(C)CCCC[C@@H]1NC(=O)[C@@H]2C[C@H](C(=O)NCCCCCN)[C@H](c3cccc(OCCO)c3)N2C1=O", "composite z-score", 0.549]
]}

All figures here come from PubChem BioAssay.
